# Tgt: Recombinant human KIF18A (1-467 His-tagged) protein (Homo sapiens)
# Construct: Recombinant human KIF18A (1-467 His-tagged) protein; His
# Sequence (Q8NI77 1-467): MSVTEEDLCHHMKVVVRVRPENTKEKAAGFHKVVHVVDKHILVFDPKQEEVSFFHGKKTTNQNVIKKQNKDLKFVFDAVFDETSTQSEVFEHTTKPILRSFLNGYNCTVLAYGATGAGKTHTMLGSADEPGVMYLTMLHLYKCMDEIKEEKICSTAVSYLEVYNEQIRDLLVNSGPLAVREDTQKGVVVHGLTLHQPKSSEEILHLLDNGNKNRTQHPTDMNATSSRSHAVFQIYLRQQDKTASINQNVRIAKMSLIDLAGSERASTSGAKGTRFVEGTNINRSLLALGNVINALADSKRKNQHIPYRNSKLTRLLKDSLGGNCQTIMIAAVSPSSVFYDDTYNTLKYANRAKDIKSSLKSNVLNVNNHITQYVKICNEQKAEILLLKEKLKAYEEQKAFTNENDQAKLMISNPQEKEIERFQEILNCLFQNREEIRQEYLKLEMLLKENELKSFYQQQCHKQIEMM
# Sequence (P02550 whole entry partner): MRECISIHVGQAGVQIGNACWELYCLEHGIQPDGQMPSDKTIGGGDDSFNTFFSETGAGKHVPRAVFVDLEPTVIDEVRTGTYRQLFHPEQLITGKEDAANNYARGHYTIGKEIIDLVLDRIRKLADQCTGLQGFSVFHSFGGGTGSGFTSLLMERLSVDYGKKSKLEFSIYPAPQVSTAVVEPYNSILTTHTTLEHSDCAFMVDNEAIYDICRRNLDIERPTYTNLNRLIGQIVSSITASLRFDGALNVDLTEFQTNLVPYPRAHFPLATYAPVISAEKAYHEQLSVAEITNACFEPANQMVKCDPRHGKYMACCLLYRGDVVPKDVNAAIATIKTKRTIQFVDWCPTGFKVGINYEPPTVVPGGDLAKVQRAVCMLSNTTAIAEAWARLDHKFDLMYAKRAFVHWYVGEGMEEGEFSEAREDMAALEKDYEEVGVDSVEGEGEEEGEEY
# Sequence (P02554 whole entry partner): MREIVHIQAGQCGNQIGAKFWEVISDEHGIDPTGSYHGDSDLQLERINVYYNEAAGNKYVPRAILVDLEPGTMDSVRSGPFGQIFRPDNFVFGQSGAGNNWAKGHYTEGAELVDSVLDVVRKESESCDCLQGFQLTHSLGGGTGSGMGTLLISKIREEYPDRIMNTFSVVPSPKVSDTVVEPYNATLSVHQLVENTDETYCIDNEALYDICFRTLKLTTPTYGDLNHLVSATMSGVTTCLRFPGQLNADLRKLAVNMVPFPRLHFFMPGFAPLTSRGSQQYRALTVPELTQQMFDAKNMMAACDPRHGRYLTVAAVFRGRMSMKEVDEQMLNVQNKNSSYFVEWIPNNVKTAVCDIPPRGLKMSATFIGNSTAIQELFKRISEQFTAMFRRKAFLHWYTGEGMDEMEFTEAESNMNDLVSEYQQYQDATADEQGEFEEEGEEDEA
# Procedure Details: KIF18A Enzyme Assay: microtubule-stimulated ATPase activity (ADP-Glo)
# Settings: 30 nM KIF18A, 75 μM ATP
Property Measured: IC50 (nM)

# Smi, IC50 (nM)
records = [
    ("CC(C)(C)NS(=O)(=O)c1cccc(NC(=O)c2ccc(N3CCCC3(C)C)nc2N2CCC3(CC2)CC3)c1", 342),
]

I = CC(C)(CO)Nc1ccc(C(=O)Nc2cccc(S(=O)(=O)NC3CC3)c2)c(N2CCC3(CC2)CC3)n1
II = O=C(Nc1cccc(S(=O)(=O)C2CCCCC2)c1)c1cccnc1N1CCC2(CC1)CC2
Inquiry: Hi there, can you help? I need to know whether I or II has lower measured IC50. Reply with the label of the item you choose.
Reply text: I

====

# Tgt: Recombinant human KIF18A (1-467 His-tagged) protein (Homo sapiens)
# Construct: Recombinant human KIF18A (1-467 His-tagged) protein; His
# Procedure Details: KIF18A Enzyme Assay: microtubule-stimulated ATPase activity (ADP-Glo)
# Settings: 30 nM KIF18A, 75 μM ATP
pIC50: −log10 of the molar value.
Property Measured: pIC50

Worked cases, pIC50 given:
# Smi, pIC50
rows = [
    ("CC(C)(C)NS(=O)(=O)c1cc(F)cc(NC(=O)c2ccc(NC(C)(C)CO)nc2N2CCC3(CC2)CC3)c1", 6.97),
    ("CC(CO)(CO)Nc1ccc(C(=O)Nc2cccc(S(=O)(=O)NC3CC3)c2)c(N2CCC3(CC2)CC3)n1", 7.32),
    ("O=C(Nc1cccc(S(=O)(=O)NC2CC(F)(F)C2)c1)c1cccnc1N1CCC2(CC1)CC2", 6.32),
    ("CC(C)(CCO)Nc1ccc(C(=O)Nc2cccc(S(=O)(=O)C3CCCC3)c2)c(N2CCC3(CC2)CC3)n1", 7.33),
    ("CC(C)(CO)Nc1ccc(C(=O)Nc2cccc(S(=O)(=O)C3CCC3)c2)c(N2CCC3(CC2)CC3)n1", 7.55),
]

A = CC(C)(C)NS(=O)(=O)c1cccc(NC(=O)c2ccc(NC(C)(C)CO)nc2N2CCC3(CC2)CC3)c1F
B = CCCC1CCN(c2ncccc2C(=O)Nc2cccc(S(=O)(=O)N3CCCCC3)c2)CC1
C = O=C(Nc1cccc(S(=O)(=O)C2CCCC2)c1)c1ccc(NC2COC2)nc1N1CCC2(CC1)CC2
Inquiry: In this exercise, place the 3 compounds in ascending sequence of their recorded pIC50. Give the order by naming the labels one after another as requested.
Reply text: B, A, C

A = CC1(NS(=O)(=O)c2cccc(NC(=O)c3ccc(NC4(CO)CC4)nc3N3CCC4(CC3)CC4)c2)CCC1
B = O=C(Nc1cccc(S(=O)(=O)C2CCCC2)c1)c1ccc(NC2(CO)COC2)nc1N1CCC2(CC1)CC2
C = Cn1ccnc1-c1cccc(NC(=O)c2ccc(NC(C)(C)CO)nc2N2CCC3(CC2)CC3)c1
Inquiry: Hey, quick one: sort these by pIC50, largest value first please. Give the order by naming the labels one after another as requested.
Reply text: B, A, C
(B: 7.41, A: 6.98, C: 6.36)

I = CC(C)(C)NS(=O)(=O)c1cccc(NC(=O)c2ccncc2N2CCC3(CC2)CC3)c1
II = CC(C)(C)NS(=O)(=O)c1cccc(NC(=O)c2ccc(NC3(CO)CCC3)nc2N2CCC3(CC2)CC3)c1
Inquiry: Hi there, can you help? I need to know whether I or II has lower measured pIC50. Reply with the label of the item you choose.
Reply text: I
(I: 6.94, II: 7.15)

The origin of these recorded values is patent US12540129B2.
